Data provenance is PubChem BioAssay (EPA / NIEHS).

read-out: Monocyte Chemoattractant Protein-1 (MCP1), CCL2 (gene 6347); assay: BSK_4H_MCP1: BioMAP Diversity Plus: 4H Assay for Monocyte Chemoattractant Protein-1 (MCP1) Biomarker Activity (AID 2283018); conditions: primary human endothelial cells (HUVEC); actives raise or lower the signal
The source made the active and inactive calls. The calls were made as follows: active = hit-call score of the fitted dose curve at least 0.9, where 1 is the maximum; inactive = score below 0.9.
Possible outcomes: active, inactive

INSERT INTO assay_data (compound, assigned_label) VALUES
  ('Nc1cccc(N)c1', 'inactive'),
  ('Clc1nc(Cl)c(Cl)c(Cl)c1Cl', 'inactive'),
  ('CN(C)c1ccc(Cc2ccc(N(C)C)cc2)cc1', 'inactive'),
  ('CC1=CC(=O)CC(C)(C)C1', 'inactive'),
  ('O=C(O)CC(O)C(=O)O (configuration not stated)', 'inactive'),
  ('COc1ccc(/C=C/S(=O)(=O)NC(=O)c2ccc(C)cc2Cl)cc1', 'inactive'),
  ('CC(C)CCO', 'inactive'),
  ('CCCCCCCCCCCCc1ccccc1', 'inactive'),
  ('Cc1ccc(C)c(O)c1', 'inactive'),
  ('Fc1ccccc1[C@@H](F)COC1CCC(Nc2ncnc3[nH]ncc23)CC1 (some centres not stated)', 'inactive'),
  ('COC(=O)c1ccccc1O', 'inactive'),
  ('CC[C@H](C)C(=O)O[C@H]1C[C@@H](C)C=C2C=C[C@H](C)[C@H](CC[C@@H]3C[C@@H](O)CC(=O)O3)[C@H]21', 'active');

* * *

experiment: ATG_DR4_LXR_CIS: Attagene CIS-FACTORIAL HepG2 Assay for human Liver X Receptor (LXR), DR4 submotif (AID 2282929); conditions: HepG2 Attagene DR4 cis-reporter, mRNA transcription; actives raise or lower the signal
Activity calls are given as the source filed them. The calls were made as follows: active = hit-call score of the fitted dose curve at least 0.9, where 1 is the maximum; inactive = score below 0.9.
measurement-kind: AC50

INSERT INTO measurements (structure_string, assay_result) VALUES
  ('CCn1nc(Cc2ccccc2)cc1C1CCN(C[C@H]2C[C@H](N(C)[C@@H](C(=O)O)C(C)C)C[C@@H]2c2cccc(F)c2)CC1', '100 µM (active)'),
  ('CN(C)c1ccc(N=NS(=O)(=O)O)cc1', 'inactive'),
  ('NC(=O)NO', 'inactive'),
  ('CCC(C)(C)C(=O)O[C@H]1C[C@@H](C)C=C2C=C[C@H](C)[C@H](CC[C@@H]3C[C@@H](O)CC(=O)O3)[C@H]21', 'inactive'),
  ('CCCCCCCCCCCCc1ccccc1', 'inactive');

* * *

assay: Tanguay_ZF_120hpf_ActivityScore_legacy: (Legacy) Oregon State University Tanguay Lab 120 Hour Post-fertilization zebrafish Assay Score for Activity (AID 2283742)
Activity calls are given as the source filed them. How the source made its calls: active means hit-call score of the fitted dose curve at least 0.9, where 1 is the maximum; inconclusive means response in the unintended direction; inactive means score below 0.9.
Possible outcomes: active, inactive

INSERT INTO results (compound, assigned_label) VALUES
  ('CC(=O)OCCC(C)C', 'inactive'),
  ('Nc1cccc(N)c1', 'inactive'),
  ('O=c1n(CC2CO2)c(=O)n(CC2CO2)c(=O)n1CC1CO1 (stereo not drawn)', 'inactive'),
  ('CC[C@H]1OC(=O)[C@H](C)[C@@H](O[C@H]2C[C@@](C)(OC)[C@@H](O)[C@H](C)O2)[C@H](C)[C@@H](O[C@@H]2O[C@H](C)C[C@H](N(C)C)[C@H]2O)[C@](C)(O)C[C@@H](C)C(=O)[C@H](C)[C@@H](O)[C@]1(C)O', 'inactive'),
  ('C[C@](N)(Cc1ccc(O)c(O)c1)C(=O)O', 'inactive'),
  ('CCCCCCc1ccc(O)cc1O', 'active'),
  ('COCCOc1cc2cc(C(=O)NC3CCN(C(C)C)CC3)n(CC(=O)Nc3ccc(Cl)cn3)c2cn1', 'inactive'),
  ('Clc1nc(Cl)c(Cl)c(Cl)c1Cl', 'inactive'),
  ('O=C1CCC(N2C(=O)c3ccccc3C2=O)C(=O)N1 (stereo not drawn)', 'inactive'),
  ('COc1ccc(/C=C/S(=O)(=O)NC(=O)c2ccc(C)cc2Cl)cc1', 'inactive'),
  ('C=CCCCCCCCCC(=O)O', 'inactive'),
  ('COC(=O)c1ccccc1O', 'inactive'),
  ('CC[C@H](C)C(=O)O[C@H]1C[C@@H](C)C=C2C=C[C@H](C)[C@H](CC[C@@H]3C[C@@H](O)CC(=O)O3)[C@H]21', 'active'),
  ('Oc1ccc2c(c1)-c1ccccc1C2', 'active'),
  ('COC(=O)CC(=O)OC', 'inactive'),
  ('CNS(=O)(=O)c1cc(C(=O)N2CCC(CCN3C4CCC3CC(n3c(C)nc5ccccc53)C4)(c3cccc(F)c3)CC2)c(Cl)cc1F (stereo not drawn)', 'inactive'),
  ('CC(=O)c1ccc2c(c1)[C@H](NC(=O)c1ccc(F)cc1)[C@@H](O)C(C)(C)O2', 'inactive'),
  ('Cn1cnc([N+](=O)[O-])c1Sc1ncnc2nc[nH]c12', 'inactive'),
  ('CC(C)(O)c1coc(S(=O)(=O)NC(=O)Nc2c3c(cc4c2CCC4)CCC3)c1', 'inactive'),
  ('On1ccccc1=S', 'inactive'),
  ('CC/C(=C\C(=N/O)C(N)=O)C(C)[N+](=O)[O-] (stereo not drawn)', 'inactive'),
  ('CNCc1ccc(NC(=O)c2c[nH]c3c2C(=O)CCC3)cc1', 'inactive'),
  ('CCOC(=O)CC(CC(=O)OCC)(OC(C)=O)C(=O)OCC', 'inactive');

* * *

experiment: APR_HepG2_CellLoss_24hr: Apredica 24-hour HepG2 Assay for Cell Loss (AID 2282908); settings: high-content imaging;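 as to AC50: fit in both directions so a hit may be cell loss or gain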
The source made the active and inactive calls. Rule for the calls: active = hit-call score of the fitted dose curve at least 0.9, where 1 is the maximum; inactive = score below 0.9.
measurement-kind: AC50

INSERT INTO assay_data (compound, assay_result) VALUES
  ('CCCCCCCCCCCCCCCO', 'inactive'),
  ('Cc1ccc(S(=O)(=O)O)cc1C', 'inactive'),
  ('CCCCCCc1ccc(O)cc1O', '103 µM (active)'),
  ('CC(C)=CCC/C(C)=C\CO', 'inactive'),
  ('CC[C@H](C)C(=O)O[C@H]1C[C@@H](C)C=C2C=C[C@H](C)[C@H](CC[C@@H]3C[C@@H](O)CC(=O)O3)[C@H]21', '82 µM (active)'),
  ('CNCc1ccc(NC(=O)c2c[nH]c3c2C(=O)CCC3)cc1', 'inactive'),
  ('CC/C(=C\C(=N/O)C(N)=O)C(C)[N+](=O)[O-] (stereo not drawn)', 'inactive'),
  ('CCOC(=O)c1ccc(C2CCC(NC[C@H](O)COc3ccc(O)c(NS(C)(=O)=O)c3)CC2)cc1 (stereo partly drawn)', '32.3 µM (active)'),
  ('CC1=CC(=O)CC(C)(C)C1', 'inactive'),
  ('CCCCCCCCCCCCc1ccccc1', 'inactive'),
  ('NC(=O)NO', 'inactive'),
  ('CCOc1cccc(-n2cc(C(=O)N3CCN(c4cc(C(=O)O)c5ccccc5c4)CC3)nc2-c2ccc(C)cc2)c1', '88.3 µM (active)'),
  ('CCOCCO', 'inactive'),
  ('Cc1c(-c2cccnc2)c2ccccc2n1CCCCC(=O)O', 'inactive'),
  ('O=C(O)c1cccc(N(Cc2cccnc2)c2ccc(OC(F)F)c(OC(F)F)c2)c1', '43.6 µM (active)'),
  ('CC(O)CN(CCN(CC(C)O)CC(C)O)CC(C)O (stereo not drawn)', 'inactive'),
  ('Nc1ccc(Nc2ccccc2)cc1', 'inactive'),
  ('CCCCCCCCO', 'inactive'),
  ('CC(C)CC(C)(O)C#CC(C)(O)CC(C)C (stereo not drawn)', 'inactive'),
  ('O=C(OC[C@H]1O[C@@H](OC(=O)c2cc(O)c(O)c(OC(=O)c3cc(O)c(O)c(O)c3)c2)[C@H](OC(=O)c2cc(O)c(O)c(OC(=O)c3cc(O)c(O)c(O)c3)c2)[C@@H](OC(=O)c2cc(O)c(O)c(OC(=O)c3cc(O)c(O)c(O)c3)c2)[C@@H]1OC(=O)c1cc(O)c(O)c(OC(=O)c2cc(O)c(O)c(O)c2)c1)c1cc(O)c(O)c(OC(=O)c2cc(O)c(O)c(O)c2)c1', 'inactive'),
  ('CC(=O)OCCC(C)C', 'inactive'),
  ('Cn1cnc([N+](=O)[O-])c1Sc1ncnc2nc[nH]c12', 'inactive'),
  ('COC(=O)c1ccccc1O', 'inactive');

* * *

experiment: APR_HepG2_MicrotubuleCSK_72hr: Apredica 72-hour HepG2 Assay for Microtubule CSK Stabilty (AID 2282919); settings: HepG2 microtubule cytoskeleton, high-content imaging, actives raise or lower the signal
Activity calls are given as the source filed them. The calls were made as follows: active = hit-call score of the fitted dose curve at least 0.9, where 1 is the maximum; inactive = score below 0.9.
Possible outcomes: Y = active, N = inactive

INSERT INTO measurements (molecule, assigned_label) VALUES
  ('COc1ccc2sc(C(=O)Nc3nnn[nH]3)c(OC(C)C)c2c1', 'N'),
  ('CCNc1ccccc1', 'N'),
  ('CC(C)=CCCC(C)CCO (configuration not stated)', 'N'),
  ('O=C(O)c1cc(N=Nc2ccc(S(=O)(=O)Nc3ccccn3)cc2)ccc1O', 'N'),
  ('CN(C)c1ccc(Cc2ccc(N(C)C)cc2)cc1', 'Y'),
  ('CCCCC(CC)COC(=O)c1ccc(C(=O)OCC(CC)CCCC)cc1 (configuration not stated)', 'N'),
  ('O=C1CCCCCN1', 'N');
